biological target: N_WT (nucleocapsid, Wuhan) (SARS-CoV-2 (Wuhan), UniProt P0DTC9 1-419); assay: MST; details: protein: recombinant; tags: 6xHis; chain copies: 2; label: Cy5
Observation Type: Kd (nM)
Numeric only. Scale: nM

- Binder: "CAUAAUAAGAGGCUGGAUUUUUGGUA (ssRNA) [ssRNA22]"
  Kd [nM]: 291

Consider the additional binder presented here.
Lookup: Report Kd for UUCGUCCGGGUGUGACCGAAAGGUAA (ssRNA) [ssRNA20] please.
Found: 425
